Catalogue of TGI readings, one per entry.
Test system: TK-10 renal
Assay: NCI tumour cell line growth inhibition, 48 h

[
  {
    "Compound": "O=C(Nc1ccccc1C(=O)Nc1nccs1)c1ccccc1",
    "TGI": "> 100 µM"
  }
]

Value of measured TGI for the entry Cc1ccc(S(=O)(=O)N2CCN(CCO)CCN(S(=O)(=O)c3ccc(C)cc3)CCN(CCO)CC2)cc1 : > 100 µM

For reference, reported TGI for COC(=O)[C@@H]1O[C@]12[C@@H](CO[Si](C)(C)C(C)(C)C)O[C@@H](n1cc(C)c(=O)[nH]c1=O)[C@@H]2O[Si](C)(C)C(C)(C)C stands at > 100 µM

Notebook: N#Cc1c(NCc2ccccc2)nc(NCc2ccccc2)c(C#N)c1-c1cccc(O)c1 , TGI read as 17.4 µM

// recorded TGI for C=C1C[C@@H]2[C@H](CC[C@]3(C)C(=O)CC[C@@H]23)[C@@]2(C)C=CC(=O)C=C12 : > 100 µM

Entry O=c1c(-c2ccc(O)cc2)coc2cc(O)cc(O)c12 ; TGI = > 100 µM

The compound identified as c1ccc2c(c1)c1c3n2-c2cc(on2)C3CCC1 (stereo not given) registered its TGI at > 100 µM

The compound identified as COC(=O)C1=C(C)NC2(C)OC(C)(O)C(C(C)=O)C12C(C)=O (stereo not given) registered its TGI at > 100 µM

The measured TGI associated with N#Cc1ccc2c(c1)C(=O)c1c-2n(CCCN=[N+]=[N-])c(=O)c2cc([N+](=O)[O-])ccc12 reads > 50 µM

Recorded result, C=C1C(=O)O[C@H]2[C@H]([C@H](C)CCCC(C)=O)O[C@H]([C@@]3(C)CCC(=O)O3)C[C@@H]12 , TGI: 52.3 µM

The compound listed as Cc1nnc2sc(-c3ccc([N+](=O)[O-])o3)nn12 shows TGI equal to 28.6 µM

For this compound ( COC(=O)c1nn(C(=N)c2ccc(Cl)cc2)c2c1CCCCC2 ), measured TGI is > 100 µM

Looking up O=c1/c(=C/c2ccc(-c3ccc(Cl)cc3Cl)o2)sc2n1[C@@H](c1ccc3c(c1)OCO3)C=C(c1cc(F)c(Cl)cc1Cl)N=2 , I see its TGI listed as 59 µM

----------
Test system: IGROV1 ovarian
Assay: NCI tumour cell line growth inhibition, 48 h
Attribute measured: TGI

[
  {
    "Compound": "CCOC(=O)c1cc(-c2ccn(C(C)=O)c2)c(-c2cc(C)co2)[nH]1",
    "TGI": "> 100 µM"
  },
  {
    "Compound": "CCC1CCC2c3c([nH]c4ccccc34)C3C(=O)N(c4ccc(OC)cc4)C(=O)C3C2C1 (centres undefined)",
    "TGI": "> 100 µM"
  },
  {
    "Compound": "O=C(O)c1ccc2cccnc2c1O",
    "TGI": "25.8 µM"
  },
  {
    "Compound": "O=S1(=O)CC(Br)C(Br)C1 (centres undefined)",
    "TGI": "28.6 µM"
  },
  {
    "Compound": "Cc1nnc(CC#N)n1NC(=O)CC#N",
    "TGI": "> 100 µM"
  },
  {
    "Compound": "COc1cccc2c1[C@]1(O)C(O)CCCC21 (some centres undefined)",
    "TGI": "> 100 µM"
  },
  {
    "Compound": "Cc1[nH]n(-c2ccccc2)c(=O)c1C(=O)c1ccccc1",
    "TGI": "> 25 µM"
  },
  {
    "Compound": "COC(=O)C1[C@H](C(=O)OC)C1(Br)CBr (some centres undefined)",
    "TGI": "> 100 µM"
  },
  {
    "Compound": "CCC(=O)OC1=CN2C(=NC(c3ccc(N)cc3)=CC2c2cc(OC)c(OC)c(OC)c2)S1 (centres undefined)",
    "TGI": "6.63 µM"
  },
  {
    "Compound": "CC1OC=CC(=O)C1O (centres undefined)",
    "TGI": "> 100 µM"
  }
]

# next compound below
The compound listed as CCOC(=O)N1C(=S)C(C(=O)OC)(C(=O)OC)N=C1C has a reported TGI of > 100 µM

----------
System: SK-MEL-28 melanoma
Assay: NCI tumour cell line growth inhibition, 48 h
Attribute measured: TGI

# example entries with known answers
[
  {
    "Compound": "O=c1oc2ccccc2c(O)c1Cc1cccc(Cc2c(O)c3ccccc3oc2=O)c1",
    "Assayed system": "SK-MEL-28 melanoma",
    "TGI": "> 100 µM"
  },
  {
    "Compound": "NC1CCCCC1N.O=S(=O)([O-])CCCN1CCN(CCO)CC1.O=S(=O)([O-])CCCN1CCN(CCO)CC1.[Pt+4]",
    "Assayed system": "SK-MEL-28 melanoma",
    "TGI": "29.8 µM"
  },
  {
    "Compound": "C[C@H]1CCC/C=C/[C@@H]2C[C@H](O)C[C@H]2[C@H](O)[C@@H](SC2OC(CO)C(O)C(O)C2O)CC(=O)O1 (stereo partly specified)",
    "Assayed system": "SK-MEL-28 melanoma",
    "TGI": "> 100 µM"
  },
  {
    "Compound": "CN(C)c1ccc(N=C(C#N)c2nc(N)nc(N3CCN(c4ccccc4)CC3)n2)cc1",
    "Assayed system": "SK-MEL-28 melanoma",
    "TGI": "> 50 µM"
  },
  {
    "Compound": "C[n+]1c(-c2ccc(/C=N/Nc3ccnc(N/N=C/c4ccc(-c5cn6ccccc6[n+]5C)cc4)n3)cc2)cn2ccccc21",
    "Assayed system": "SK-MEL-28 melanoma",
    "TGI": "95.8 µM"
  }
]

According to the records, this compound CSc1ccccc1P(CCP(c1ccccc1SC)c1ccccc1SC)c1ccccc1SC displays TGI of > 100 µM

Record O=c1[nH]cnc2nc(-c3ccc(N(CCCl)CCCl)cc3)[nH]c12 . Reported TGI: > 100 µM

Query Cc1ccc([N+](=O)[O-])cc1NC(=O)C(=O)C1CCC2=C(Sc3ccccc3N2)C1=O (stereo unspecified) yields TGI of > 100 µM

Summary for this compound, C=C(C(=O)OC)[C@H]1CC/C(C)=C/CC/C(C)=C/CC[C@@]2(C)O[C@@H]2C1 : TGI is > 100 µM

----------
Test system: HT29 colon
Experiment: NCI tumour cell line growth inhibition, 48 h
Documented TGI across a set of compounds
Enter your answer as a number in µM; do not include the unit.

[
  {
    "Compound": "C[C@]12CC[C@H]3[C@@H](CCC4=C[C@@H](OC5OCC(OC6OC(CO)C(O)C(O)C6O)C(O)C5O)CC[C@@]43C=O)[C@@]1(O)CCC2C1=CC(=O)OC1 (some centres not stated)",
    "Assayed system": "HT29 colon",
    "TGI / µM": 5.35
  }
]

So for CS(=O)(=O)Nc1cc(-c2ccc3ncnc(Nc4cccc(Cl)c4F)c3c2)cnc1Cl , the logged TGI turned out to be 38.4

Lookup result for O[C@H](CN1CC1)[C@@H](O)CN1CC1 ; measured TGI: 26.6

----------
Tested on: SK-MEL-5 melanoma
Assay: NCI tumour cell line growth inhibition, 48 h
Attribute measured: GI50

Consider the worked cases shown below.
[
  {
    "Item smiles": "FC(F)(F)c1cc(NC2=NCCN=C(Nc3cc(C(F)(F)F)cc(C(F)(F)F)c3)SS2)cc(C(F)(F)F)c1",
    "Assayed system": "SK-MEL-5 melanoma",
    "GI50": "3.2 µM"
  },
  {
    "Item smiles": "CCC1(CC)C(=O)[N-]C(=O)[N-]C1=O.[Au+].[Au+].c1ccc([PH+](c2ccccc2)c2ccccc2)cc1.c1ccc([PH+](c2ccccc2)c2ccccc2)cc1",
    "Assayed system": "SK-MEL-5 melanoma",
    "GI50": "1.05 µM"
  }
]

Recorded GI50 for O=C(O)c1cc2c(c3ccsc13)-c1ccccc1CC2 on SK-MEL-5 melanoma was 31.3 µM

Tested on SK-MEL-5 melanoma, the item c1cc2ccc1CNCCN1CCNCc3ccc(cc3)Oc3ccc(cc3)CNCCN(CCNCc3ccc(cc3)O2)CCNCc2ccc(cc2)Oc2ccc(cc2)CNCC1 showed GI50 equal to 2.26 µM

----------
Tested on: SNB-19 CNS
Assay: NCI tumour cell line growth inhibition, 48 h
Attribute measured: TGI

[
  {
    "Compound": "CS(=O)(=O)Nc1cc(-c2ccc3ncnc(Nc4cccc(Cl)c4F)c3c2)cnc1Cl",
    "TGI": "16.1 µM"
  }
]

TGI for CC(C)c1nccn1Cc1ccc(Cl)cc1Cl is > 100 µM

The value of TGI measured for the compound C[C@@H](c1ccccc1)N(CC#N)C1CCC[C@H]1O (stereo partly specified) turned out to be > 100 µM

Lab book: TGI of O=C(O)c1cc2c(c3ccsc13)-c1ccccc1CC2 noted as > 100 µM

response.value for O=C(Nc1cccc([N+](=O)[O-])c1)c1cc2ccccc2cc1O (field: TGI) = > 100 µM

Per the record, C/C(=C\CNc1nc(Cl)nc2nc[nH]c12)CO has TGI of > 100 µM

Entry CCCCCCCCCCCCCCC(O)C1CCC(C(O)CCC(O)CCCCCC(O)CC2=CC(C)OC2=O)O1 (stereo unspecified) ; TGI = 11.1 µM

Note to self: TGI recorded for O=C1NC(O)CCN1C1CC(O)C(CO)O1 (stereo unspecified) was > 100 µM

Entry under test: S=C(Nc1ccc2c(c1)Cc1ccccc1-2)Nc1ccc2c(c1)Cc1ccccc1-2 . Its TGI was > 100 µM

Please fill in: TGI reported for CC1(C)O[C@@H](CP(c2cccc3ccccc23)c2cccc3ccccc23)[C@H](CP(c2cccc3ccccc23)c2cccc3ccccc23)O1 = > 100 µM

Data point: COC(=O)C12C3C4C1C1C2C3C41C(=O)N(C(C)C)C(C)C (stereo unspecified) ; TGI = > 100 µM
